System: Staphylococcus aureus
Assay explanation: Antimicrobial activity against Oxacillin-resistant Staphylococcus aureus by broth microdilution method
Format: functional
Provide the reported MIC50 of each item.

Which MIC50 value is on record for C[C@H]1COc2c(N3CCN(C)CC3)c(F)cc3c(=O)c(C(=O)O)cn1c23.C[C@H]1COc2c(N3CCN(C)CC3)c(F)cc3c(=O)c(C(=O)O)cn1c23.O [LEVOFLOXACIN] ?
> 4 µg/mL

Would you mind telling me what MIC50 value was observed for CC(=O)NC[C@H]1CN(c2ccc(N3CCOCC3)c(F)c2)C(=O)O1 [LINEZOLID] ?
1 µg/mL

MIC50 for CC[C@H]1OC(=O)[C@H](C)[C@@H](O[C@H]2C[C@@](C)(OC)[C@@H](O)[C@H](C)O2)[C@H](C)[C@@H](O[C@@H]2O[C@H](C)C[C@H](N(C)C)[C@H]2O)[C@](C)(O)C[C@@H](C)C(=O)[C@H](C)[C@@H](O)[C@]1(C)O [ERYTHROMYCIN] ?
> 2 µg/mL
